# experimental details: Half life of the compound in phosphate buffer with 214 ml/min oxygen flow assessed as oxidation at 0.25 mM by Ellman's method
# Format: physicochemical
reported metric: half-life at 250 µM (h)
Write down the numeric answer in h and omit the unit.

# input molecule: Br.O=C(O)C(S)Cc1cnc[nH]1 (racemic) ; wanted: its half-life at 250 µM
12.7

====

# experimental details: Half life of the compound in phosphate buffer with 400 ml/min oxygen flow assessed as oxidation at 0.14 mM by Ellman's method
# Format: physicochemical
reported metric: half-life at 140 µM
Field: value (include unit after the number)

# input molecule: Br.O=C(O)C(S)Cc1cnc[nH]1 (racemic) ; wanted: its half-life at 140 µM
8.7 h

====

# experimental details: Half life of the compound in phosphate buffer with 214 ml/min oxygen flow assessed as oxidation at 0.24 mM by Ellman's method
# Type: physicochemical
reported metric: half-life at 240 µM (min)
Write down the numeric answer in min and omit the unit.

# input compound: N[C@@H](CS)C(=O)O [CYSTEINE] ; wanted: its half-life at 240 µM
384

====

# experimental details: Half life of the compound in phosphate buffer with 360 ml/min oxygen flow assessed as oxidation at 0.16 mM by Ellman's method
# Type: physicochemical
reported metric: half-life at 160 µM (h)
Write down the numeric answer in h and omit the unit.

# input compound: `N[C@@H](CS)C(=O)O` ; wanted: its half-life at 160 µM
5.3

====

# experimental details: Inhibition of Rana catesbeiana tadpole collagenase using lathyritic rat skin collagen as substrate after 41 hrs by radial diffusion assay
# particulars: read-out: I50
reported metric: IC50

# input compound: Br.O=C(O)C(S)Cc1cnc[nH]1 (racemic) ; wanted: its IC50
3.8 mM

# input compound: N[C@@H](Cc1c[nH]cn1)C(=O)O [HISTIDINE] ; wanted: its IC50
≥ 100 mM

# input compound: CC(=O)N[C@@H](CS)C(=O)O [ACETYLCYSTEINE] ; wanted: its IC50
≥ 100 mM

# input compound: N[C@@H](CS)C(=O)O [CYSTEINE] ; wanted: its IC50
8.7 mM
